- Test system: Staphylococcus aureus
- ASSAY_TEXT: Antibacterial activity against Staphylococcus aureus after 24 hrs by twofold serial dilution method
- Assay type: functional
PROPERTY_MEASURED: MIC (µg/mL)
Form entry: value (µg/mL) — number only.

Look up MIC for this compound: COc1ccc(C2C/C(=N\N3C(=O)CNC3=S)C(C)C(c3ccc(OC)cc3)N2)cc1 (stereo not given)
50

Next compound up: COc1ccc(C2C/C(=N\N3C(=O)CNC3=S)C(C)(C)C(c3ccc(OC)cc3)N2)cc1 (stereo not given)
200

Next compound up: CC1(C)/C(=N/N2C(=O)CNC2=S)CC(c2ccccc2)NC1c1ccccc1 (stereo not given)
100

Next compound up: O=C1CNC(=S)N1N=C1CC(c2ccccc2)NC(c2ccccc2)C1 (stereo not given)
100

Next compound up: O=C1CNC(=S)N1N=C1CC(c2ccc(F)cc2)NC(c2ccc(F)cc2)C1 (stereo not given)
50

* * *

- Test system: Escherichia coli
- ASSAY_TEXT: Antibacterial activity against Escherichia coli after 24 hrs by twofold serial dilution method
- Format: functional
Rule: MIC below 20 µg/mL gives label 1, anything at or above gives label 0.

# check: MIC < 20 µg/mL for O=C1CNC(=S)N1N=C1CC(c2ccc(F)cc2)NC(c2ccc(F)cc2)C1 (stereo not given)
label 1

Next molecule up: Cc1ccc(C2CC(=NN3C(=O)CNC3=S)CC(c3ccc(C)cc3)N2)cc1 (stereo not given)
label 0

Next molecule up: CC1(C)/C(=N/N2C(=O)CNC2=S)CC(c2ccc(Cl)cc2)NC1c1ccc(Cl)cc1 (stereo not given)
label 0

Next molecule up: COc1ccc(C2C/C(=N\N3C(=O)CNC3=S)C(C)C(c3ccc(OC)cc3)N2)cc1 (stereo not given)
label 0

Next molecule up: O=C(O)c1cn(C2CC2)c2cc(N3CCNCC3)c(F)cc2c1=O
label 0

* * *

- System: Escherichia coli
- ASSAY_TEXT: Antibacterial activity against Escherichia coli after 24 hrs by twofold serial dilution method
- Format: functional
PROPERTY_MEASURED: MIC (µg/mL)
Form entry: value (µg/mL) — number only.

Look up MIC for this compound: CC1(C)/C(=N/N2C(=O)CNC2=S)CC(c2ccccc2)NC1c1ccccc1 (stereo not given)
100

Next compound up: CC1/C(=N/N2C(=O)CNC2=S)CC(c2ccccc2)NC1c1ccccc1 (stereo not given)
50

Next compound up: Cc1ccc(C2C/C(=N\N3C(=O)CNC3=S)C(C)(C)C(c3ccc(C)cc3)N2)cc1 (stereo not given)
50

Next compound up: CC1/C(=N/N2C(=O)CNC2=S)CC(c2ccc(Cl)cc2)NC1c1ccc(Cl)cc1 (stereo not given)
50

Next compound up: CC1/C(=N/N2C(=O)CNC2=S)CC(c2ccc(F)cc2)NC1c1ccc(F)cc1 (stereo not given)
12.5
